Value source: paper PMC11460632

- TEST_SYSTEM: hisCD44_HABD^20–169 (Homo sapiens, UniProt P16070)
- Construct: A novel construct consisting of residues 20 to 169 of human CD44 and an N-terminal six-histidine tag; made in house
- Sequence (P16070 20-169): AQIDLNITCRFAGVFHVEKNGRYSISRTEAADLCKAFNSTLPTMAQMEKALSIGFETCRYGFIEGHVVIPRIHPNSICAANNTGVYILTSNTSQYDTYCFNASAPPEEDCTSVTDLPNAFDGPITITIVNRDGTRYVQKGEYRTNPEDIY
- RUN_DESCRIPTION: MST of HA oligosaccharides binding to hisCD44_HABD^20–169
- RECORDED_CONDITIONS: Table 6; relative to unmodified oligosaccharide of the same length, by MST
Mark False for % Binding affinity hisCD44_HABD^20–169 values under 50%, and True for everything at or above.

These recorded examples may help you get a feel for the data.
# COMPOUND_SMILES, GROUP_LABEL
measured = [
    ("CC(=O)N[C@H]1[C@H](O[C@H]2[C@H](O)[C@@H](O)[C@H](O[C@H]3[C@H](O)[C@@H](CO)O[C@@H](O[C@H]4[C@H](O)[C@@H](O)[C@H](O[C@@H]([C@H](O)[C@H](O)CO)[C@H](CNc5cc[nH]n5)NC(C)=O)O[C@@H]4C(=O)O)[C@@H]3NC(C)=O)O[C@@H]2C(=O)O)O[C@H](CO)[C@@H](O)[C@@H]1O[C@@H]1O[C@H](C(=O)O)[C@@H](O)[C@H](O)[C@H]1O", "True"),
    ("COc1ccc(C(=O)O)c(NC[C@H](NC(C)=O)[C@@H](O[C@@H]2O[C@H](C(=O)O)[C@@H](O[C@@H]3O[C@H](CO)[C@@H](O)[C@H](O[C@@H]4O[C@H](C(=O)O)[C@@H](O[C@@H]5O[C@H](CO)[C@@H](O)[C@H](O[C@@H]6O[C@H](C(=O)O)[C@@H](O)[C@H](O)[C@H]6O)[C@H]5NC(C)=O)[C@H](O)[C@H]4O)[C@H]3NC(C)=O)[C@H](O)[C@H]2O)[C@H](O)[C@H](O)CO)c1", "True"),
    ("CC(=O)N[C@H]1[C@H](O[C@H]2[C@H](O)[C@@H](O)[C@H](O[C@H]3[C@H](O)[C@@H](CO)O[C@@H](O[C@H]4[C@H](O)[C@@H](O)[C@H](O[C@H]5[C@H](O)[C@@H](CO)O[C@@H](O[C@H]6[C@H](O)[C@@H](O)[C@H](O[C@@H]([C@H](O)[C@H](O)CO)[C@H](CNc7cccc8c7CCC8)NC(C)=O)O[C@@H]6C(=O)O)[C@@H]5NC(C)=O)O[C@@H]4C(=O)O)[C@@H]3NC(C)=O)O[C@@H]2C(=O)O)O[C@H](CO)[C@@H](O)[C@@H]1O[C@@H]1O[C@H](C(=O)O)[C@@H](O)[C@H](O)[C@H]1O", "False"),
]

Is % Binding affinity hisCD44_HABD^20–169 at least 50%? Consider CC(=O)N[C@H]1[C@H](O[C@H]2[C@H](O)[C@@H](O)[C@H](O[C@H]3[C@H](O)[C@@H](CO)O[C@@H](O[C@H]4[C@H](O)[C@@H](O)[C@H](O[C@@H]([C@H](O)[C@H](O)CO)[C@H](CNc5ccc6c(c5)CCC6)NC(C)=O)O[C@@H]4C(=O)O)[C@@H]3NC(C)=O)O[C@@H]2C(=O)O)O[C@H](CO)[C@@H](O)[C@@H]1O[C@@H]1O[C@H](C(=O)O)[C@@H](O)[C@H](O)[C@H]1O
True

Reported % Binding affinity hisCD44_HABD^20–169 reaches at least 50% for CC(=O)N[C@H]1[C@H](O[C@H]2[C@H](O)[C@@H](O)[C@H](O[C@H]3[C@H](O)[C@@H](CO)O[C@@H](O[C@H]4[C@H](O)[C@@H](O)[C@H](O[C@@H]([C@H](O)[C@H](O)CO)[C@H](CNc5cccc6c5CCC6)NC(C)=O)O[C@@H]4C(=O)O)[C@@H]3NC(C)=O)O[C@@H]2C(=O)O)O[C@H](CO)[C@@H](O)[C@@H]1O[C@@H]1O[C@H](C(=O)O)[C@@H](O)[C@H](O)[C@H]1O ?
False

====

- TEST_SYSTEM: recombinant human TSG-6 (Homo sapiens, UniProt P19827+P98066)
- Construct: TSG-6–mediated HC-transfer assays (using full-length TSG6); purchased R&D Systems
- Sequence (P98066 18-277): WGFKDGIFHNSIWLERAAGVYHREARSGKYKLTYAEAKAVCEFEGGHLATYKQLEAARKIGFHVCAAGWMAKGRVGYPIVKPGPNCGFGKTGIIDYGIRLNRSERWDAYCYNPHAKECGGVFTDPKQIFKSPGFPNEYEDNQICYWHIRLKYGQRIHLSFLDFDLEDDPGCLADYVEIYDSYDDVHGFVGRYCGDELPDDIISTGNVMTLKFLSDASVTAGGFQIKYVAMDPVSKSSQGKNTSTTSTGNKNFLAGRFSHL
- Sequence (P19827 35-672 limits assumed): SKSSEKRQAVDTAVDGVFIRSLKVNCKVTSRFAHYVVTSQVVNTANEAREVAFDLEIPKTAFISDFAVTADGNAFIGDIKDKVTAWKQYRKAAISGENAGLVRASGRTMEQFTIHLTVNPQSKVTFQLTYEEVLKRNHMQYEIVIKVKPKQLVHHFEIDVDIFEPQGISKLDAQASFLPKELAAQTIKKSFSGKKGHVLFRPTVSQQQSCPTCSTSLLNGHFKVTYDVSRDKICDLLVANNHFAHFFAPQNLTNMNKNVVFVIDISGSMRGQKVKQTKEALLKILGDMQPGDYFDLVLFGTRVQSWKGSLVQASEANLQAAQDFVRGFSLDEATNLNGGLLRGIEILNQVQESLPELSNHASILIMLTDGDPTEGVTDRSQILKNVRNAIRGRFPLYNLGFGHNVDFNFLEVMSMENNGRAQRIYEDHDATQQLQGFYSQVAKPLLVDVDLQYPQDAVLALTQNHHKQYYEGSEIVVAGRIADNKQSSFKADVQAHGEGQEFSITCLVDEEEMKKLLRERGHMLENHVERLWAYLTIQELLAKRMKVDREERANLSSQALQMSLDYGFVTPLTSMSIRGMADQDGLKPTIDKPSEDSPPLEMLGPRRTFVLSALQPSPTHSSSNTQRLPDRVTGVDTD
- RUN_DESCRIPTION: In vitro HC-transfer assay (IαI + rhTSG-6, Western blot anti-HC1)
- Assay type: biochemical
- RECORDED_CONDITIONS: Table 6; 15 μM HA, 1.8 μM IαI, rhTSG-6, 2 h at 37 °C
MEASURE: Substrate for HC transfer

# COMPOUND_SMILES, RESULT
measured = [
    ("CC(=O)N[C@H]1[C@H](O[C@H]2[C@H](O)[C@@H](O)[C@H](O[C@H]3[C@H](O)[C@@H](CO)O[C@@H](O[C@H]4[C@H](O)[C@@H](O)[C@H](O[C@H]5[C@H](O)[C@@H](CO)O[C@@H](O[C@H]6[C@H](O)[C@@H](O)[C@H](O[C@@H]([C@H](O)[C@H](O)CO)[C@H](CNc7ccc(C(=O)O)cc7)NC(C)=O)O[C@@H]6C(=O)O)[C@@H]5NC(C)=O)O[C@@H]4C(=O)O)[C@@H]3NC(C)=O)O[C@@H]2C(=O)O)O[C@H](CO)[C@@H](O)[C@@H]1O[C@@H]1O[C@H](C(=O)O)[C@@H](O)[C@H](O)[C@H]1O", "Yes"),
    ("CC(=O)N[C@H]1[C@H](O[C@H]2[C@H](O)[C@@H](O)[C@H](O[C@H]3[C@H](O)[C@@H](CO)O[C@@H](O[C@H]4[C@H](O)[C@@H](O)[C@H](O[C@@H]([C@H](O)[C@H](O)CO)[C@H](CNc5cccc(C(=O)O)c5)NC(C)=O)O[C@@H]4C(=O)O)[C@@H]3NC(C)=O)O[C@@H]2C(=O)O)O[C@H](CO)[C@@H](O)[C@@H]1O[C@@H]1O[C@H](C(=O)O)[C@@H](O)[C@H](O)[C@H]1O", "No"),
    ("CC(=O)N[C@H]1[C@H](O[C@H]2[C@H](O)[C@@H](O)[C@H](O[C@H]3[C@H](O)[C@@H](CO)O[C@@H](O[C@H]4[C@H](O)[C@@H](O)[C@H](O[C@@H]([C@H](O)[C@H](O)CO)[C@H](CNc5cc[nH]n5)NC(C)=O)O[C@@H]4C(=O)O)[C@@H]3NC(C)=O)O[C@@H]2C(=O)O)O[C@H](CO)[C@@H](O)[C@@H]1O[C@@H]1O[C@H](C(=O)O)[C@@H](O)[C@H](O)[C@H]1O", "Yes"),
]

====

- TEST_SYSTEM: hisCD44_HABD^20–169 (Homo sapiens)
- Construct: A novel construct consisting of residues 20 to 169 of human CD44 and an N-terminal six-histidine tag; made in house
- RUN_DESCRIPTION: MST of HA oligosaccharides binding to hisCD44_HABD^20–169
- RECORDED_CONDITIONS: Table 5; MST, 10 mM Hepes pH 7.5, 150 mM NaCl, 0.05% Tween-20, 25 °C; mean ± SD, three titrations; read-out: KD
MEASURE: Kd (µM)
Answers are plain numbers, in µM.

For every item in the list below, what is its measured Kd?
1. CC(=O)N[C@H]1[C@H](O[C@H]2[C@H](O)[C@@H](O)[C@H](O[C@H]3[C@H](O)[C@@H](CO)O[C@@H](O[C@H]4[C@H](O)[C@@H](O)[C@H](O[C@H]5[C@H](O)[C@@H](CO)O[C@@H](O[C@H]6[C@H](O)[C@@H](O)[C@H](O[C@@H]([C@H](O)[C@H](O)CO)[C@H](CNc7cc[nH]n7)NC(C)=O)O[C@@H]6C(=O)O)[C@@H]5NC(C)=O)O[C@@H]4C(=O)O)[C@@H]3NC(C)=O)O[C@@H]2C(=O)O)O[C@H](CO)[C@@H](O)[C@@H]1O[C@@H]1O[C@H](C(=O)O)[C@@H](O)[C@H](O)[C@H]1O [HA8-3APY]
2. COc1ccc(C(=O)O)c(NC[C@H](NC(C)=O)[C@@H](O[C@@H]2O[C@H](C(=O)O)[C@@H](O[C@@H]3O[C@H](CO)[C@@H](O)[C@H](O[C@@H]4O[C@H](C(=O)O)[C@@H](O[C@@H]5O[C@H](CO)[C@@H](O)[C@H](O[C@@H]6O[C@H](C(=O)O)[C@@H](O[C@@H]7O[C@H](CO)[C@@H](O)[C@H](O[C@@H]8O[C@H](C(=O)O)[C@@H](O)[C@H](O)[C@H]8O)[C@H]7NC(C)=O)[C@H](O)[C@H]6O)[C@H]5NC(C)=O)[C@H](O)[C@H]4O)[C@H]3NC(C)=O)[C@H](O)[C@H]2O)[C@H](O)[C@H](O)CO)c1 [HA8-2A4MBA]

1: 220; 2: 36
